Cytochrome P450 2C9 (Homo sapiens) IC50, compiled from various sources.

In the examples that follow, each entry is paired with its recorded IC50.
| SMILES_CODE | MEASURED_PARAMETER | RESULT |
| --- | --- | --- |
| C[C@@H](c1nc(-c2ccc(C#N)cc2)cs1)[C@](O)(Cn1cncn1)c1cc(F)c(F)cc1F | IC50 | 18.4 µM |
| Cc1cc(C)c2c(c1)N(C(=O)c1cc(Cl)c(O)c(Cl)c1)CCO2 | IC50 | 12 µM |

The compound `Cc1cnc(Nc2cnn(CC#N)c2)nc1-c1ccc(C(=O)NCC#N)cc1` , when measured on Cytochrome P450 2C9 (Homo sapiens), yielded IC50 of > 50 µM

Recorded IC50 for `CC(C)Oc1ccc(S(=O)(=O)N2CC[C@H](n3nc(CC(=O)O)c4ccc(F)cc43)[C@@H](C)C2)cc1` on Cytochrome P450 2C9 (Homo sapiens) was > 20 µM
